Test system: A498
Test: NCI tumour cell line growth inhibition, 48 h
The source made the active and inactive calls. Rule as the data show it: active = GI50 up to about 1.1 µM and inactive = higher. Peptide text beside a SMILES is read from it. * marks the point of attachment. OSu = O=C1CCC(=O)N1O*
# key: entry, value: GI50

Consider the worked cases shown below.
Cc1ccc(-n2c3nc(=O)n(C)c(=O)c-3nc3ccccc32)cc1
26.7 µM (inactive)
CC(C)(C)c1cc(C2NC(=O)NC2=O)cc(C(C)(C)C)c1O (stereo not drawn)
> 100 µM (inactive)
COC(=O)c1oc([N+](=O)[O-])c(Cl)c1Cl
15.1 µM (inactive)
O=C(OCc1ccccc1)c1nc2ccccc2n1S(=O)(=O)c1ccccc1
> 100 µM (inactive)

Now turn to the next molecule.
Task: Which measured GI50 belongs to NCCCCC(NC(=O)C(N)Cc1ccc(O)cc1)C(=O)NC(CCCCN)C(=O)NC(CCCCN)C(=O)ON1C(=O)CCC1=O (stereo not drawn) (H-YKKK-OSu; configuration not given here) , tested on A498?
Output: > 100 µM (inactive)

* * *

Tested on: SK-OV-3
Assay: NCI tumour cell line growth inhibition, 48 h
Activity calls are given as the source filed them. No stated cut-off is given here; in the data, active = GI50 up to about 1.1 µM and inactive = higher.
Select the correct class. Options are label 1 for active, label 0 for inactive and nothing else.

Task: // param item: C[n+]1ccc(Nc2ccc(NC(=O)c3ccc(Nc4cc[n+](C)c5ccc([N+](=O)[O-])cc45)cc3[N+](=O)[O-])cc2)cc1 ; yields the recorded call
Output: label 0

Task: // param item: CC(C)(C)OC(=O)N(CCNS(=O)(=O)c1cccc2cnccc12)CCC(=O)ON1C(=O)CCC1=O ; yields the recorded call
Output: label 0

Task: // param item: CC1(C)C(=O)/C=C\C(=O)C(C)(C)C2=CC=C(O2)C(C)(C)C(=O)/C=C\C(=O)C(C)(C)C2=CC=C1O2 ; yields the recorded call
Output: label 0

Task: // param item: Fc1ccc(-c2sc(-c3cccs3)cc2Cc2cccs2)cc1 ; yields the recorded call
Output: label 0

Task: // param item: CC(C)[C@](O)(C(=O)OCC1=CC[N+]2([O-])CC[C@@H](O)[C@@H]12)[C@H](C)O (stereo not given in full) [INDICINE N-OXIDE] ; yields the recorded call
Output: label 0

Task: // param item: CC(=O)NC(=O)/N=C1\NCCC(=O)N1CCc1c[nH]c2ccccc12 ; yields the recorded call
Output: label 0

Task: // param item: Cc1cc(C)c(S(=O)(=O)ONC(=O)OC(C)(C)C)c(C)c1 ; yields the recorded call
Output: label 0

Task: // param item: CCN(C(C)=O)c1cnc(/C=N/NC(N)=S)c2ccccc12 ; yields the recorded call
Output: label 0

Task: // param item: COc1ccc(N2C(=O)CC(=O)N(C(=O)CCCCCCCCC(=O)N3C(=O)CC(=O)N(c4ccc(OC)cc4)C3=S)C2=S)cc1 ; yields the recorded call
Output: label 0

Task: // param item: O=C(O)C(SC1=NC(=O)C2(NN1)c1ccccc1-c1ccccc12)SC1=NC(=O)C2(NN1)c1ccccc1-c1ccccc12 ; yields the recorded call
Output: label 0

Task: // param item: CCCSc1ccc2[nH]c(N3C(=O)/C(=C/c4ccc(O)c(OC)c4)N=C3c3ccccc3)cc2c1 ; yields the recorded call
Output: label 1

Task: // param item: COC(=O)C(=O)C(C(=O)C(=O)Nc1ccccc1C(N)=O)c1nc2ccc(Cl)cc2nc1O (stereo not given) ; yields the recorded call
Output: label 0

Task: // param item: CCOC(=O)c1cccc(/N=N/c2nc[nH]c2/C=C/C(=O)OC)c1 ; yields the recorded call
Output: label 0

Task: // param item: C(=C(c1ccc(OC2CCCCO2)cc1)c1ccc(OC2CCCCO2)cc1)c1ccccc1 (stereo not given) ; yields the recorded call
Output: label 0
